pKi for assorted compounds
# experimental_system: Aurora-2 (Aurora A) (Homo sapiens)
# Sequence (O14965 whole entry): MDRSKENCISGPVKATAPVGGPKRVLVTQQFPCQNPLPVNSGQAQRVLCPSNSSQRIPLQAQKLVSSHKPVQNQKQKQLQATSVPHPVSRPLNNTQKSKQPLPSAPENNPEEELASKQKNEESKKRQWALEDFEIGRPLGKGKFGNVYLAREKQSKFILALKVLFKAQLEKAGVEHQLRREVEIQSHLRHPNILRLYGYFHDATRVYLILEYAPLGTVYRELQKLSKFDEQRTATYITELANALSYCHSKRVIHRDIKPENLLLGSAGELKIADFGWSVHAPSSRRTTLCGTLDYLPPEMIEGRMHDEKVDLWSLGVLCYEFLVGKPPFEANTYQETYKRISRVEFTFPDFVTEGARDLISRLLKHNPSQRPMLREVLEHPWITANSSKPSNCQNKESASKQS
# procedure_summary: Aurora-2 (Aurora A) inhibition assay, coupled enzyme
# Type: biochemical
# condition_set: read-out: Aurora A kinase Ki value
pKi: −log10 of the molar value.

Field: example entries. Status: answers known.
> print(dat)
                                   compound  value.type           val
1  CCC(=O)Nc1ccc(Sc2nc(Nc3cc(C)[nH]n3)cc(N3CC(F)(C4CC4)C3)n2)cc1 [Compound 147]         pKi  8.30 to 9.00
2  COC1(C2CC2)CN(c2cc(Nc3cc(C)[nH]n3)nc(Sc3ccc(NC(=O)C4CC4)cc3)n2)C1 [Compound 118]         pKi        ≥ 9.00
3  Cc1cc(Nc2cc(N3CC(F)(C4CC4)C3)nc(Sc3ccc4nc(C(F)(F)F)cn4c3)n2)[nH]n1 [Compound 190]         pKi  8.30 to 9.00

Form field: reported pKi of Cc1cc(Nc2cc(N3CC(N4CCOCC4)C3)nc(Sc3ccc4nc(CC(F)(F)F)n(C)c4c3)n2)[nH]n1 [Compound 177]
≥ 9.00

Form field: reported pKi of Cc1cc(Nc2cc(N3CCC3)nc(Sc3ccc(NC(=O)c4cccnc4C)cc3)n2)[nH]n1 [Compound 63]
6.70 to 8.30

Form field: reported pKi of Cc1cc(Nc2cc(N3CCC3)nc(Sc3ccc(NC(=O)c4ccc(CN5CCC5)cc4)cc3)n2)[nH]n1 [Compound 139]
6.70 to 8.30

Form field: reported pKi of Cc1cc(Nc2cc(N3CC(N4CCOCC4)C3)nc(Sc3ccc(NC(=O)CC(F)(F)F)cc3)n2)[nH]n1 [Compound 199]
≥ 9.00

---

Ki for assorted molecules
# experimental_system: JAK3 (Homo sapiens)
# Sequence (P52333 1-1124): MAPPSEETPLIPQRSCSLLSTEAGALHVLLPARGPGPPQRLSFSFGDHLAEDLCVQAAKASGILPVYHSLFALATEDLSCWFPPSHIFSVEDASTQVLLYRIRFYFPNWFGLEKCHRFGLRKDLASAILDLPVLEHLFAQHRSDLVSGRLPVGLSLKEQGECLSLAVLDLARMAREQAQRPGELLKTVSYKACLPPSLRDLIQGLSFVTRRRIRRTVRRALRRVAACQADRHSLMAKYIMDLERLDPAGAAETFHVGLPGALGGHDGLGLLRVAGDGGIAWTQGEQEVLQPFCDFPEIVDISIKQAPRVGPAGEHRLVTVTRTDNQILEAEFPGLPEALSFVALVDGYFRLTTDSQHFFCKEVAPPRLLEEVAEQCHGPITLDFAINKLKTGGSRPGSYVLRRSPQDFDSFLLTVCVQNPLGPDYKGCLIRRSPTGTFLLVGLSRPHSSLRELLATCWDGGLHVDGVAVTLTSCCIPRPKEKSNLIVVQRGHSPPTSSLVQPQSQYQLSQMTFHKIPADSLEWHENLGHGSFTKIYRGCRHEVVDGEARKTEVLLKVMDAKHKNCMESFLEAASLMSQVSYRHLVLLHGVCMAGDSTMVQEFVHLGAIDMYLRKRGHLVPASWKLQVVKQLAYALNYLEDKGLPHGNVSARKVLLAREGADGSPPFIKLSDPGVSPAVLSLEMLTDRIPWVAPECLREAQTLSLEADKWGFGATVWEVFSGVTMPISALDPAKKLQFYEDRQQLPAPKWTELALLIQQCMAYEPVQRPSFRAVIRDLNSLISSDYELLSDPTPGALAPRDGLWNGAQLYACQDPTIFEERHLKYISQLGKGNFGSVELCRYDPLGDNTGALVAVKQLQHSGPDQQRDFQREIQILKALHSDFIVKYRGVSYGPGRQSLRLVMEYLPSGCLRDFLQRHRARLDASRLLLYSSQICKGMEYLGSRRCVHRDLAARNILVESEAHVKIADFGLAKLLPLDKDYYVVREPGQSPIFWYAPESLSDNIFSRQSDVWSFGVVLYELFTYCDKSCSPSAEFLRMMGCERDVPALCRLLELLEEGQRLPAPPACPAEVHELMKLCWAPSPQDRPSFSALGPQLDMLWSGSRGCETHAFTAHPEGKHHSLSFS
# procedure_summary: biochemical

Field: example entries. Status: answers known.
> print(dat)
                                    molecule  experimental.system             val
 1  O=C(Nc1ccc(Sc2nc(Nc3cc(C4CC4)[nH]n3)cc(N3CC(O)(C4CC4)C3)n2)cc1)C1CC1  JAK3 (Homo sapiens)       ≤ 0.01 µM
 2  Cc1cc(Nc2cc(N3CCC3)nc(Sc3ccc(NC(=O)C4CCCCC4)cc3)n2)n[nH]1  JAK3 (Homo sapiens)  0.01 to 0.5 µM
 3  Cc1cc(Nc2cc(N3CCC3)nc(Sc3ccc(NC(=O)c4ocnc4C)cc3)n2)n[nH]1  JAK3 (Homo sapiens)  0.01 to 0.5 µM
 4  Cc1cc(Nc2cc(N3CC(F)(C4CC4)C3)nc(Sc3cnc4ccccc4c3)n2)[nH]n1  JAK3 (Homo sapiens)       ≤ 0.01 µM
 5  Cc1cc(Nc2cc(N3CCC3)nc(Sc3ccc(C(=O)Nc4ccc(Cl)cc4)cc3)n2)n[nH]1  JAK3 (Homo sapiens)       ≤ 0.01 µM
 6  CC(C)=C1CN(c2cc(Nc3cc(C)n[nH]3)nc(Sc3ccc(NC(=O)CC(F)(F)F)cc3)n2)C1  JAK3 (Homo sapiens)  0.01 to 0.5 µM
 7  Cc1cc(Nc2cc(N3CCC3)nc(Sc3ccc(NC(=O)c4ccc(Cl)cc4Cl)cc3)n2)n[nH]1  JAK3 (Homo sapiens)  0.01 to 0.5 µM
 8  Cc1cc(Nc2cc(N3CCC3)nc(Sc3ccc(NC(=O)C4CC4)cc3)n2)n[nH]1  JAK3 (Homo sapiens)  0.01 to 0.5 µM
 9  CCC(=O)Nc1ccc(Sc2nc(Nc3cc(C)n[nH]3)cc(N3CC4(C3)OCC4(C)C)n2)cc1  JAK3 (Homo sapiens)       ≤ 0.01 µM
10  Cc1cc(Nc2cc(N3CC(F)(C4CC4)C3)nc(Sc3ccc(N)cc3)n2)[nH]n1  JAK3 (Homo sapiens)       ≤ 0.01 µM

Form field: reported Ki of `Cc1cc(Nc2cc(N3CCC3)nc(Sc3ccc4ccccc4c3)n2)n[nH]1`
≤ 0.01 µM

Form field: reported Ki of `Cc1cc(Nc2nc(Sc3ccc(NC(=O)CC(F)(F)F)cc3)nc(N3CC(F)(C4CC4)C3)c2F)[nH]n1`
0.5 to 2 µM

Form field: reported Ki of Cc1cc(Nc2cc(N3CC(O)(C4CC4)C3)nc(Sc3ccc(NC(=O)C4CC4(F)F)cc3)n2)[nH]n1 (stereo not drawn)
≤ 0.01 µM

Form field: reported Ki of `Cc1cc(Nc2cc(N3CC(N4CCOCC4)C3)nc(Sc3ccc4nc(C(F)(F)F)n(C)c4c3)n2)[nH]n1`
0.01 to 0.5 µM

Form field: reported Ki of `Cc1cc(Nc2cc(N3CCC3)nc(Sc3ccc(C(=O)NC4CCCC4)cc3)n2)n[nH]1`
0.5 to 2 µM

Form field: reported Ki of `Cc1cc(Nc2cc(N3CC(OC(C)C)C3)nc(Sc3ccc(NC(=O)c4ccccc4Cl)cc3)n2)n[nH]1`
0.01 to 0.5 µM

Form field: reported Ki of `Cc1cc(Nc2cc(N3CCC3)nc(Sc3ccc(N(C)C(=O)c4c(F)cccc4F)cc3)n2)n[nH]1`
0.01 to 0.5 µM

---

# Ki measurements, system: human Itk kinase (Homo sapiens)
# Sequence (Q08881 whole entry): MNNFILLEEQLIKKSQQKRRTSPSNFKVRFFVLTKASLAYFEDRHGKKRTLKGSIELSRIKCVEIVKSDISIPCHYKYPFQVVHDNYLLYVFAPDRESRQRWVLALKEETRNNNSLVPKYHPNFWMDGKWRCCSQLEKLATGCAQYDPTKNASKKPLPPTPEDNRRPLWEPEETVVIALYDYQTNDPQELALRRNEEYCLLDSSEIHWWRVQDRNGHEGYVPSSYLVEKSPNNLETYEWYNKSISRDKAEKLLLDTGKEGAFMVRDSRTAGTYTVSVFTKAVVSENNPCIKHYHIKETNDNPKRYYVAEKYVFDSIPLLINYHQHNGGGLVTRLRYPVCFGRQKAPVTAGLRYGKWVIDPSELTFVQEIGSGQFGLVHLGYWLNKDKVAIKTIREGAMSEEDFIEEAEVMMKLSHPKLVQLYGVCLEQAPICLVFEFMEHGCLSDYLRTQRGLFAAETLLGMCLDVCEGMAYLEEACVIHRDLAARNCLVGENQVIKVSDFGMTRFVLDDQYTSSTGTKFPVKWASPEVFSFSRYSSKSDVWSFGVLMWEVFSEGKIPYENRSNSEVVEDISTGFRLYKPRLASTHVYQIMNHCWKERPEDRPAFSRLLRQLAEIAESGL

Form field: reported Ki of Cc1cnc(Nc2cc(N3CC(O)C3)nc(Sc3ccc(NC(=O)C4CC4)cc3)n2)s1 [Compound 3]
100 to 1000 nM

Form field: reported Ki of Cc1cc(Nc2cc(N3CCC3)nc(Sc3ccc(NC(=O)OC(C)(C)C)cc3)n2)n[nH]1 [Compound 26]
1000 to 2000 nM

Form field: reported Ki of CCC(=O)Nc1ccc(Sc2nc(C#CC(C)(C)N3CCC3)cc(Nc3cc(C)n[nH]3)n2)cc1 [Compound 77]
100 to 1000 nM

Form field: reported Ki of CCC(=O)Nc1ccc(Sc2nc(Nc3cc(C)n[nH]3)cc(N3CC(N4CCOCC4)C3)n2)cc1 [Compound 68]
100 to 1000 nM

Form field: reported Ki of Cc1cc(Nc2cc(N3CCC3)nc(Sc3ccc(NC(=O)c4ccccc4C)cc3)n2)n[nH]1 [Compound 31]
100 to 1000 nM

Form field: reported Ki of Cc1cc(Nc2cc(N3CCC3)nc(Sc3cccc(NC(=O)c4ccccc4Cl)c3)n2)[nH]n1 [Compound 49]
1000 to 2000 nM

Form field: reported Ki of COC1(C)CN(c2cc(Nc3cc(C)n[nH]3)nc(Sc3ccc(NC(=O)c4ccccc4Cl)cc3)n2)C1 [Compound 51]
≤ 100 nM

Form field: reported Ki of CCC(=O)Nc1ccc(Sc2nc(Nc3cc(C)[nH]n3)cc(N3CCC3)n2)cc1 [Compound 14]
100 to 1000 nM

Form field: reported Ki of CCC(=O)Nc1ccc(Sc2nc(Nc3cc(C)n[nH]3)cc(N3CC(OC(C)(C)C)C3)n2)cc1 [Compound 67]
100 to 1000 nM

Form field: reported Ki of Cc1cc(Nc2cc(N3CCC3)nc(Sc3ccc(NC(=O)C4CCCCC4)cc3)n2)n[nH]1 [Compound 30]
100 to 1000 nM

Form field: reported Ki of CCNC(=O)c1ccc(Sc2nc(Nc3cc(C)[nH]n3)cc(N3CCC3)n2)cc1 [Compound 20]
100 to 1000 nM

Form field: reported Ki of Cc1cc(Nc2cc(N3CCC3)nc(Sc3ccc(NC(=O)c4ocnc4C)cc3)n2)n[nH]1 [Compound 167]
1000 to 2000 nM

Form field: reported Ki of Cc1cc(Nc2cc(N3CCC3)nc(Sc3ccc(NC(=O)c4c(F)cccc4N4CCC4)cc3)n2)n[nH]1 [Compound 8]
100 to 1000 nM

Form field: reported Ki of Cc1cc(Nc2cc(N3CCC3)nc(Sc3ccc(NC(=O)Cc4cccc(Cl)c4)cc3)n2)[nH]n1 [Compound 58]
100 to 1000 nM

Form field: reported Ki of Cc1cc(Nc2cc(N3CCC3)nc(Sc3ccc(NC(=O)c4c(Cl)cccc4Cl)cc3)n2)n[nH]1 [Compound 46]
≤ 100 nM

Form field: reported Ki of COC1CN(c2cc(Nc3cc(C)[nH]n3)nc(Sc3ccc(NC(=O)c4ccccc4Cl)cc3)n2)C1 [Compound 12]
≤ 100 nM

Form field: reported Ki of Cc1cc(Nc2cc(N3CCC3)nc(Sc3ccc(NC(=O)c4ccc(Cl)cc4Cl)cc3)n2)n[nH]1 [Compound 162]
100 to 1000 nM

Form field: reported Ki of CCC(=O)Nc1ccc(Sc2nc(Nc3cc(C)[nH]n3)cc(N3CC(O)C3)n2)cc1 [Compound 15]
100 to 1000 nM
